remaining binding at 0.05 µM by entry:
tested_target: wild-type LRRK2 (Homo sapiens)
Construct: DNA tag for qPCR detection (not a peptide; the protein part that carries it is not described); made in house; host or cells: HEK 293 cells (the same paragraph also describes T7 phage grown in E. coli BL21)
Sequence (Q5S007 970-2527): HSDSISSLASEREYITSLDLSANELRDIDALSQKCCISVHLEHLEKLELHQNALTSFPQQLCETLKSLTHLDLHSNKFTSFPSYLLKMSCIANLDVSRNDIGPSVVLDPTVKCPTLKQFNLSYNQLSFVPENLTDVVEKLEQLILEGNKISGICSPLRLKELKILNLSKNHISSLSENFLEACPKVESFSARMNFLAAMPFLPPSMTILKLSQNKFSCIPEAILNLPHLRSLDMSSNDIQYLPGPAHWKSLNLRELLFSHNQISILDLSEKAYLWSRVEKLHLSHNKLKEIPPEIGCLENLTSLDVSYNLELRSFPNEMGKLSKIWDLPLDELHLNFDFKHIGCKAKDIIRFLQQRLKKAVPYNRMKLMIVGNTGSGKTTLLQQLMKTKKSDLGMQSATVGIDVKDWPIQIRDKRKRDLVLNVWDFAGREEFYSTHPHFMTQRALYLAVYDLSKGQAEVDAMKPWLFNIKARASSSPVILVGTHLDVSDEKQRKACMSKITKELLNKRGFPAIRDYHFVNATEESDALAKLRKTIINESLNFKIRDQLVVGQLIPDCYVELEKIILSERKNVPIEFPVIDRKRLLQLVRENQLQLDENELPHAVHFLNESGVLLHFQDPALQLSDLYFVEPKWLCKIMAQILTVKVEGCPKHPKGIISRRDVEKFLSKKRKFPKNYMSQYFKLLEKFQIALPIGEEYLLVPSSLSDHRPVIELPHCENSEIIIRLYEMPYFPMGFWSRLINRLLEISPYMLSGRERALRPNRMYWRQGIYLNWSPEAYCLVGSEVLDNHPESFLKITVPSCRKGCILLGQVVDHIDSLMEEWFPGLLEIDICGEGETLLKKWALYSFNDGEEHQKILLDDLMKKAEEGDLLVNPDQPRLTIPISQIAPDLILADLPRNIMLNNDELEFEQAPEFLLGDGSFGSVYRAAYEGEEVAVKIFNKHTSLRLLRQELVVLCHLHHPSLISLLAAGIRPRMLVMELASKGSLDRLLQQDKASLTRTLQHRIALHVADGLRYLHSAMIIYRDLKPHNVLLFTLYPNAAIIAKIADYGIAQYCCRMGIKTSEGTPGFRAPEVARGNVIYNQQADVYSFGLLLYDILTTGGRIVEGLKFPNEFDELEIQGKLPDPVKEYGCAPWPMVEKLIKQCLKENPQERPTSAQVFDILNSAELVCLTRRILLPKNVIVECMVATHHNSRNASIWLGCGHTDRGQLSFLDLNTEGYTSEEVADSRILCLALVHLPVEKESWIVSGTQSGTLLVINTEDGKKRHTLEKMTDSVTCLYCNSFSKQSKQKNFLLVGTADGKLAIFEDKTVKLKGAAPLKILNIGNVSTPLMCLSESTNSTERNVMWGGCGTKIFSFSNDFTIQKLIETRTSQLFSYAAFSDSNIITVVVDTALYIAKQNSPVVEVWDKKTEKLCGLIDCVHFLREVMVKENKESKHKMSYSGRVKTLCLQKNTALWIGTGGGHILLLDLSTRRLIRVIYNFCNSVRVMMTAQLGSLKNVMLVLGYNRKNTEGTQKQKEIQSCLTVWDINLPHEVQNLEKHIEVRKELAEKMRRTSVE
protocol_notes: Inhibitory activity against LRRK2: competition binding to ligand-affinity beads, DNA-tagged kinase quantitated by qPCR
condition_label: 50 nM compound; % of ctrl; read-out: LRRK2(WT) Remaining kinase activity(%) at 50 nM
observable: remaining binding at 0.05 µM

1. COc1cc(C(=O)NCc2ccc(S(N)(=O)=O)cc2)ccc1Nc1ncc(Cl)c(-c2cnn(C(C)C)c2)n1	< 50%
2. COc1cc(C(=O)NC2CC2)ccc1Nc1ncc(Cl)c(-c2cnn(C(C)C)c2)n1	< 30%
3. COc1cc(C(=O)NC2CCC(O)CC2)ccc1Nc1ncc(Cl)c(-c2cnn(C(C)C)c2)n1 (centres unmarked)	< 30%
4. COc1ccc(CNC(=O)c2ccc(Nc3ncc(Cl)c(-c4cnn(C(C)C)c4)n3)c(OC)c2)cc1	< 50%
5. COc1ccccc1CNC(=O)c1ccc(Nc2ncc(Cl)c(-c3cnn(C(C)C)c3)n2)c(OC)c1	< 30%
6. CC(C)n1cc(-c2nc(Nc3ccc(C(=O)N4CCN(C)CC4)cc3OC(F)F)ncc2Cl)cn1	< 30%
7. COc1cc(C(=O)NCCS(C)(=O)=O)ccc1Nc1ncc(Cl)c(-c2cnn(C(C)C)c2)n1	< 30%
8. COc1cc(C(=O)Nc2ccc(Cl)cc2)ccc1Nc1ncc(Cl)c(-c2cnn(C(C)C)c2)n1	< 50%
9. COc1cc(C(=O)NCC2CCOC2)ccc1Nc1ncc(Cl)c(-c2cnn(C(C)C)c2)n1 (centres unmarked)	< 30%
10. COc1cc(C(=O)N2CCN3CCCC3C2)ccc1Nc1ncc(Cl)c(-c2cnn(C(C)C)c2)n1 (centres unmarked)	< 30%
11. COc1cc(C(=S)N2CCN(C)CC2)ccc1Nc1ncc(Cl)c(-c2cnn(C(C)C)c2)n1	< 10%
12. COc1cc(C(=O)NC2CCN(C)CC2)ccc1Nc1ncc(Cl)c(-c2cnn(C(C)(C)C)c2)n1	< 30%
13. COc1cc(C(=O)N2CCOCC2)ccc1Nc1ncc(Cl)c(-c2cnn(C(C)C)c2)n1	< 30%
14. COc1cc(C(=O)NC2CC(C)(C)NC(C)(C)C2)ccc1Nc1ncc(Cl)c(-c2cnn(C(C)C)c2)n1	< 30%
15. COc1cc(C(=O)NC2CCOCC2)ccc1Nc1ncc(Cl)c(-c2cnn(C(C)C)c2)n1	< 30%
16. COc1cc(C(=S)N2CCOCC2)ccc1Nc1ncc(Cl)c(-c2cnn(C(C)C)c2)n1	< 10%
17. COc1cc(C(=O)N2[C@@H]3CC[C@H]2COC3)ccc1Nc1ncc(Cl)c(-c2cnn(C(C)C)c2)n1	< 30%
18. COc1cc(C(=O)N2CCC(N(C)C)CC2)c(F)cc1Nc1ncc(Cl)c(-c2cnn(C(C)C)c2)n1	< 10%
19. COc1cc(C(=S)N2CCOCC2)c(F)cc1Nc1ncc(Cl)c(-c2cnn(C(C)C)c2)n1	< 30%
20. COc1cc(C(=O)Nc2ccc(N(C)C)cc2)ccc1Nc1ncc(Cl)c(-c2cnn(C(C)C)c2)n1	< 30%
21. COC(=O)[C@@H]1CCCN1C(=O)c1ccc(Nc2ncc(Cl)c(-c3cnn(C(C)C)c3)n2)c(OC)c1	< 50%
22. COc1cc(C(=O)Nc2ccc3c(c2)CCN3C(C)=O)ccc1Nc1ncc(Cl)c(-c2cnn(C(C)C)c2)n1	< 50%
23. COc1cc(C(=O)N2CCC(N3CCCCC3)CC2)ccc1Nc1ncc(Cl)c(-c2cnn(C(C)C)c2)n1	< 10%
24. COc1cc(C(=O)N2CCC(N(C)C)CC2)ccc1Nc1ncc(Cl)c(-c2cnn(C(C)C)c2)n1	< 10%
25. COCCNC(=O)c1ccc(Nc2ncc(Cl)c(-c3cnn(C(C)C)c3)n2)c(OC)c1	< 30%
26. COc1cc(C(=O)NCc2ccc(C#N)cc2)ccc1Nc1ncc(Cl)c(-c2cnn(C(C)C)c2)n1	< 50%
27. COc1cc(C(=O)NCc2ccc(C)cc2)ccc1Nc1ncc(Cl)c(-c2cnn(C(C)C)c2)n1	< 50%
28. COc1cc(C(=O)N2CCN(C(C)=O)CC2)ccc1Nc1ncc(Cl)c(-c2cnn(C(C)C)c2)n1	< 10%
29. COc1cc(C(=O)N2CCN(C(C)C)CC2)ccc1Nc1ncc(Cl)c(-c2cnn(C(C)C)c2)n1	< 10%

Where these numbers come from: patent US20240254103A9
